- Tested on: Bacillus subtilis (Bs)
- PROCEDURE_DETAILS: Minimum inhibitory concentration (MIC), bacteria in nutrient agar
- Type: cell-based, Bacillus subtilis ATCC 8473
- EXPERIMENTAL_CONDITIONS: nutrient agar pH 6.8, 30° C., 48 hours
Provide the reported MIC of each item.

Known MIC results, listed for orientation:
stdin: Would you kindly share the measured MIC for N#CSCSc1nnnn1C1CCCCC1 [X] ?
stdout: < 10 µg/mL

stdin: Can you share its MIC? I mean this compound: N#CSCSc1nnnn1-c1cccc(Cl)c1 [II]
stdout: 100 µg/mL

Would you be so kind as to report MIC for each listed record?
1. N#CSCSc1nnnn1-c1ccccc1 [Example I]
2. N#CSCSc1nnnn1-c1ccc([N+](=O)[O-])cc1 [XI]
3. N#CSCSc1nnnn1-c1ccc(Br)cc1 [IV]
4. N#CSCSc1nnnn1-c1ccc(Cl)cc1 [III]
5. Cc1ccc(-n2nnnc2SCSC#N)cc1 [VII]
6. COc1ccc(-n2nnnc2SCSC#N)cc1 [VIII]

stdout:
["< 10 µg/mL", "> 100 µg/mL", "< 10 µg/mL", "< 10 µg/mL", "< 10 µg/mL", "< 10 µg/mL"]

Give me MIC for each of these compounds, listed below.
1. N#CSCSc1nnnn1-c1ccc(F)cc1 [V]
2. Cc1cccc(-n2nnnc2SCSC#N)c1 [VI]
3. N#CSCSc1nnnn1-c1ccc(C#N)cc1 [XII]
4. CC(C)(C)c1ccc(-n2nnnc2SCSC#N)cc1 [IX]

stdout:
< 10 µg/mL
< 10 µg/mL
< 10 µg/mL
25 µg/mL

====

- Test system: Escherichia coli (Ec)
- PROCEDURE_DETAILS: Minimum inhibitory concentration (MIC), bacteria in nutrient agar
- Assay type: cell-based, Escherichia coli ATCC 11229
- EXPERIMENTAL_CONDITIONS: nutrient agar pH 6.8, 30° C., 48 hours
MEASURED_PARAMETER: MIC

Consider the following illustrative entries.
stdin: Request: MIC, test system Escherichia coli (Ec), entry N#CSCSc1nnnn1-c1ccc([N+](=O)[O-])cc1
stdout: > 100 µg/mL

stdin: Recall the recorded MIC for N#CSCSc1nnnn1-c1ccc(Br)cc1 with Escherichia coli (Ec) and state it.
stdout: 500 µg/mL

For each of the compounds below, state MIC.
1. N#CSCSc1nnnn1-c1ccccc1
2. N#CSCSc1nnnn1C1CCCCC1
3. N#CSCSc1nnnn1-c1ccc(F)cc1
4. Cc1cccc(-n2nnnc2SCSC#N)c1
5. N#CSCSc1nnnn1-c1ccc(Cl)cc1
6. Cc1ccc(-n2nnnc2SCSC#N)cc1

stdout:
1. 50 µg/mL
2. 250 µg/mL
3. 100 µg/mL
4. 500 µg/mL
5. 25 µg/mL
6. 500 µg/mL

Batch lookup, MIC per entry.
1. N#CSCSc1nnnn1-c1cccc(Cl)c1
2. N#CSCSc1nnnn1-c1ccc(C#N)cc1
3. COc1ccc(-n2nnnc2SCSC#N)cc1
4. CC(C)(C)c1ccc(-n2nnnc2SCSC#N)cc1

stdout:
500 µg/mL
200 µg/mL
100 µg/mL
50 µg/mL

====

Penicillium chrysogenum (Pc) MIC data

stdin: Please report the recorded MIC for Cc1cccc(-n2nnnc2SCSC#N)c1 .
stdout: < 1 µg/mL

stdin: What does the data say about its MIC? Entry: N#CSCSc1nnnn1-c1ccc(Br)cc1
stdout: < 10 µg/mL

stdin: Bench note: what MIC did Cc1ccc(-n2nnnc2SCSC#N)cc1 show?
stdout: < 1 µg/mL

Fill in MIC for each of the 6 molecules listed.
1. COc1ccc(-n2nnnc2SCSC#N)cc1
2. N#CSCSc1nnnn1-c1ccc(F)cc1
3. N#CSCSc1nnnn1-c1ccc([N+](=O)[O-])cc1
4. N#CSCSc1nnnn1-c1ccccc1
5. N#CSCSc1nnnn1C1CCCCC1
6. CC(C)(C)c1ccc(-n2nnnc2SCSC#N)cc1

stdout:
["< 10 µg/mL", "2.5 µg/mL", "< 2.5 µg/mL", "2.5 µg/mL", "< 1 µg/mL", "2.5 µg/mL"]

For each entry beneath this line, provide reported MIC.
1. N#CSCSc1nnnn1-c1ccc(C#N)cc1
2. N#CSCSc1nnnn1-c1cccc(Cl)c1

stdout:
1. < 10 µg/mL
2. < 10 µg/mL

stdin: Given the entry N#CSCSc1nnnn1-c1ccc(Cl)cc1 , report its measured MIC.
stdout: < 1 µg/mL
